Form field: abundance fitness (one value per entry).
B1: E3 ubiquitin-protein ligase NEDD4, residues 836 to 881; numbered along this chain, P46934 (parent)
chain: EIEQGFLPKGWEVRHAPNGRPFFIDHNTKTTTWEDPRLKIPAHLRG

# Variants of: B1
# protocol summary: abundance fitness (aPCA) (normalised: wild type 0, dead -1); higher = more abundant; growth selection in yeast, the domain comes from the species named
# recorded conditions: Homo sapiens
// return a plain number; no unit text

A selection of reference data follows.
> print(dat)
   variant.id  observed.result
1        H26S            -0.47
2        K29P           -0.889

I would be grateful if you could share the reported abundance fitness for P21Y .
0.055

// same read-out, input: R45W
-0.202

Then E34C ?
-0.268

Check F23Y too.
-0.27

Okay, and T31L ?
-0.356

Try this variant too: E34W
-0.306

Try this variant too: I24F
-0.522

Also, E34H please.
-0.172

Cool, now L38H
-0.292

Another: W33K
-0.462

Also check P41K
-0.08

Let us now turn to R37L
-0.399

What about this variant? P41E
-0.167

Subsequent entry: I24C
-0.402

// repeat for P41Q and report
-0.32

And R45D ?
0.104

Record: A42R
-0.273

Try this variant next: T31C
-0.064

All figures here come from the Human Domainome abundance scans (Beltran et al. 2025).
